Please go through the items and note down their pIC50.
test: Antiviral activity against Influenza A virus (A/Thailand/Kan353/2004(H5N1)) co-expressing NA plasmid infected in 293T cells assessed as inhibition of viral entry incubated for 30 mins followed by addition of cells measured after 48 hrs by luciferase reporter gene assay; type: functional, cell-based; details: HEK-293T
pIC50: −log10 of the molar value.

Guide cases for pIC50, answers given:
[
  {
    "SAMPLE_SMILES": "COC(=O)[C@]12CCC(C)(C)C[C@H]1C1=CC[C@@H]3[C@@]4(C)CC[C@H](O[C@@H]5O[C@H](CO)[C@@H](O)[C@H](O[C@@H]6O[C@@H](C)[C@H](O)[C@@H](O)[C@H]6O)[C@H]5O)C(C)(C)[C@@H]4CC[C@@]3(C)[C@]1(C)CC2",
    "OBS_VALUE": "< 4.30"
  },
  {
    "SAMPLE_SMILES": "CC1(C)CC[C@]2(C(=O)OCc3ccccc3)CC[C@]3(C)C(=CC[C@@H]4[C@@]5(C)CC[C@H](O[C@@H]6O[C@H](CO)[C@@H](O[C@@H]7OC[C@H](O)[C@H](O)[C@H]7O)[C@H](O)[C@H]6O[C@@H]6OC[C@H](O)[C@H](O)[C@H]6O)C(C)(C)[C@@H]5CC[C@]43C)[C@@H]2C1",
    "OBS_VALUE": "< 4.30"
  }
]

Attention now turns to another entry.
What measured pIC50 goes with "COC(=O)[C@]12CCC(C)(C)C[C@H]1C1=CC[C@@H]3[C@@]4(C)CC[C@H](O[C@@H]5O[C@H](CO)[C@@H](O)[C@H](O[C@@H]6O[C@@H](C)[C@H](O)[C@@H](O)[C@H]6O)[C@H]5O[C@@H]5O[C@@H](C)[C@H](O)[C@@H](O)[C@H]5O)C(C)(C)[C@@H]4CC[C@@]3(C)[C@]1(C)CC2" ?
< 4.30

Data credit: ChEMBL document CHEMBL4052707
